# System: Friedreich ataxia patient-derived human dermal fibroblasts
# ASSAY_EXPLANATION: Cell viability evaluation test using human dermal fibroblasts derived from a Friedreich ataxia patient (BSO stress)
# Format: cell-based
# ASSAY_CONTEXT: Fibroblast, rescue of cell viability, 30 μM BSO, 48 hours, Calcein-AM fluorescence, no BSO = 100%, BSO only = 0%
RECORDED_METRIC: EC50 (nM)

>>> value_measured("CN(C)C1=NC2=C(c3cccc4cccnc34)C(=O)c3ccccc3C2=N1 [Example 14]")
41
>>> value_measured("Cc1cnccc1C1=C2N=C(N(C)C)N=C2c2ccccc2C1=O [Example 28]")
4.8
>>> value_measured("CC(=O)Nc1cccc(C2=C3N=C(N(C)C)N=C3c3ccccc3C2=O)c1 [Example 59]")
4
>>> value_measured("CN1CCN(c2ccc(C3=C4N=C(N(C)C)N=C4c4ccccc4C3=O)cc2)CC1 [Example 80]")
10
>>> value_measured("Cc1ccc(C2=C3N=C(N(C)C)N=C3c3ccccc3C2=O)cc1 [Example 2]")
17
>>> value_measured("COc1cccc(C2=C3N=C(N(C)C)N=C3c3ccccc3C2=O)c1Cl [Example 94]")
22.6
>>> value_measured("CCN(CC)C1=NC2=C(c3cccc4cn[nH]c34)C(=O)c3ccccc3C2=N1 [Example 51]")
11.8
>>> value_measured("COc1ccc(F)c(C2=C3N=C(N(C)C)N=C3c3ccccc3C2=O)c1 [Example 90]")
14

----------
// reported EC50 per item
# Test system: Friedreich ataxia patient-derived human dermal fibroblasts
# ASSAY_EXPLANATION: Cell viability evaluation test using human dermal fibroblasts derived from a Friedreich ataxia patient (BSO stress)
# Assay type: cell-based
# ASSAY_CONTEXT: Fibroblast, rescue of cell viability, 30 μM BSO, 48 hours, Calcein-AM fluorescence, no BSO = 100%, BSO only = 0%
RECORDED_METRIC: EC50 (nM)

>>> value_measured("Cc1cc(N2CCN(C)CC2)ccc1C1=C2N=C(N(C)C)N=C2c2ccccc2C1=O")
5.5
>>> value_measured("CN(C)C1=NC2=C(c3ccccc3N3CCNCC3)C(=O)c3ccccc3C2=N1")
7.2
>>> value_measured("Cc1cc(OC(F)(F)F)ccc1C1=C2N=C(N(C)C)N=C2c2ccccc2C1=O")
7.2
>>> value_measured("CC(=O)c1ccc(C2=C3N=C(N(C)C)N=C3c3ccccc3C2=O)c(C)c1")
14.3
>>> value_measured("CN(C)C1=NC2=C(c3cnn(C)c3)C(=O)c3ccccc3C2=N1")
18.8
>>> value_measured("Cc1nn(C)c(C)c1C1=C2N=C(N(C)C)N=C2c2ccccc2C1=O")
2.5
>>> value_measured("COCc1cccc(C2=C3N=C(N(C)C)N=C3c3ccccc3C2=O)c1")
20.1
>>> value_measured("Cc1ccccc1C1=C2N=C(N(C)C)N=C2c2ccccc2C1=O")
3.7

----------
# Tested on: Friedreich ataxia patient-derived human dermal fibroblasts
# ASSAY_EXPLANATION: Cell viability evaluation test using human dermal fibroblasts derived from a Friedreich ataxia patient (BSO stress)
# Type: cell-based
# ASSAY_CONTEXT: Fibroblast, rescue of cell viability, 30 μM BSO, 48 hours, Calcein-AM fluorescence, no BSO = 100%, BSO only = 0%
pEC50: −log10 of the molar value.
Note to self: pEC50 under 8 means Fulfilled, ties and anything higher get Not fulfilled.

>>> group("COc1ccccc1C1=C2N=C(N(C)C)N=C2c2ccccc2C1=O")
"Not fulfilled"
>>> group("CN(C)C1=NC2=C(c3ccccc3N3CCCC3)C(=O)c3ccccc3C2=N1")
"Not fulfilled"
>>> group("Cc1c(C2=C3N=C(N(C)C)N=C3c3ccccc3C2=O)cnn1-c1ccccc1")
"Fulfilled"

These entries and their values trace back to patent US12281083B2.
